Test system: K4 kissing-loop RNA reporter;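 also: bound reporter read as fluorescence of individual clusters on recovered sequencing chips by microscopy, with normalized cluster intensities fitted with a binding model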
Assay: apparent KD of K4 kissing-loop reporter; higher = weaker reporter binding
Conditions: Eterna round: R107; input ligand: tryptophan 2.4 mM
Readout Name: apparent KD of K4 kissing-loop reporter (nM)

>>> val("GGUGGACUAGUCGAGUGAUGUUCGAGGCAUCGAGGACCGGUACGGCCGCCACUCGCAAAUCUACCGUGCGUUAACCACCAAAGUG [theeternabot_sameState_KL_Trp_A_37]")
344
>>> val("GUAGACAGGCUGCGAACCUAGUCUACAGACUAGGAUAUCAGGAAACUGAGAAGGAGUCUAGUUGCAGUGAUGUUGCAAGAAUAAU [KL-SSFMN-A25]")
84.7
>>> val("UGACUGGACUGAAGGAGCGUUGAAGGAGCGUAGUGAGUGAUGUUCACUACAGGUAGGUCGCAGCAGGUAGGUCGCAGUCUAGUCU [ArgBS 25 #DoubleAptamer #SwitchBubble]")
145
>>> val("AGGGCUGAGAGCGAUACCAGCGGAUACUAUAUGGUCCAAUAGAGUGAUGUUUUAUAAAGCCGCCCUUGGCAGCGCAAUCUAUUAG [XTheo-B4]")
453
>>> val("GCUAAGGAGUGAUGUUCCAAGUGAUGUUAACGAGGACCGGUACGGCCGCCACUCGAUACGGCCGGACCGUAAGAUAAACUACAGC [Same State - Tryptophan A (Freestyle 6)]")
194
>>> val("CCCUUAGACUCGGCCGCCACUCGUACCGAGAGCAUGCCACCCAUUAGUGAUGUUAAUUUGUCCUUGAGGACCGGGAGCCUAGGAA [theeternabot_exclusion_KL_Trp_B_44]")
822
>>> val("GAGAUAGAGGCGGCCGCCACUAGUGAUGUUGGUGAUGUUAGAUAGAGAAUAGAACGGGUACUCCCUAGGACCGGGCCAGAUGGAG [#04 K4 Tryptophan B Exclusion]")
53
>>> val("CGCGCGCGCGCGCGCGCGCGCGCGAAUGAUACCAGUAUAUAAGAAUACCCUUGGCAGCAUAAGAAAGAUAUAGUGAUGUUGUAUA [SSTheophA.B]")
231
>>> val("GCCGUAGAUUGAAGGAGCGCCUUCUUACCAAGAGUGAUGUUCUUUGGUACCAUGUUCAGUAGGCAGGUAGGUCGCAAUCUACGGC")
390
>>> val("AGUGAUGUAUGGCGGUUUGUCACUUAUUAUCAGGAUAUAUAAACAAAUAGAAGGGAUGGCGGAGUGAUGUUCCGCCGGCCGCCAU [FMN A Exl V5]")
166
>>> val("UUUCGUAGAAGUGAUACCAGACUUGAAAGUGAUGUUUUCCAAUAAUUUAAAUUUUUAGCUGUCCCUUGGCAGCACAGUUUAUUUA [JR_Nu_ExcTheophyB_Sub026]")
165
>>> val("GGAGUUACCUGGGAUACCAGUCGGAGUCUCAGAGCACGGAGUGAUGUUCUGGGAUGUUUCGGCCCUUGGCAGCUCUGGGACUCCA [#2 Exclusion - Theophylline B Attempt #15 (HarryS)]")
228
>>> val("UGACUGGACUGAAGGAGCGCGAAACUCCUAGUGAUGUUAGGACAACGAGACAAAGUCUCGACGCAGGUAGGUCGCAGUCUAGUCU")
132
>>> val("CUGGGUUGACGAAAAGUCAACAAACGAGAAGGAGCGCACGAAAGUGCAGGUAGGUCGCUCAGUCCAGUGAUGUUGGAUCAUCCAG [#SwitchBubble 9 #K4Late]")
323
>>> val("UUUAUAUAGUCGGCCGCCACUGAUUUUUAUAUAUGUUUAUGUUUAUACGAGUGAUGUUCGUUAUUCAGGACCGGGACUUUUGUUA [JR_SSTryptoB_Sub016]")
102
>>> val("UCCUGCAAUCGGCCACGAAAGUGGAUUGAUACCAGAGUCGAAAGACUCCCUUGGCAGCGAGUGAUGUUCGAAGCAGGUAAAUAAA")
432
>>> val("AGUACAAUGGCGGCCGCCACUCAACAGCAGAUCAAAGAUCUGCUUCACUCAGUGAUGUUGAGUGAGAGGACCGGGCCUUUGUACA [Omei KL Tryp B SS B v4]")
216
>>> val("GGGCUGGUGCUAGGAUAUGCGAUGAAUGCUCAGAAAACCUUGAGUCCGCAGUGAUGUUGCGGCACCGCAGAAGGAGCUAAGGCUC [Reorinraor]")
127
>>> val("GGAGUUACCUGGGAUACCAGCCGGAGGCCCAGAGCUCGGAGUGAUGUUCUGGGAUGUUUCGGCCCUUGGCAGCUCUGGGUCUCCG [#2 Exclusion - Theophylline B Attempt #5 (HarryS)]")
1410
>>> val("UGUAUAGUCAGAAGGAGCGUGAACGAUCGAGAAUCGAUCAGCCAGUGAUGUUGGCAGGAAUCACAGGUAGGUCGCUGACUGUACA [Arg B SS t3]")
208
>>> val("UGUGGUGUAUCCUUUAGGAGUGAUGUUUUUCGAGGACCGGUACGGCCGCCACUCGAGUGAUGAGAGCGUCGUUGUGGUGGUUUGU [#16 K4 Tryptophan A Exclusion]")
730
>>> val("ACGUAGUACGUAGGAUAUCAGAGAUCAGUUAGUGAGAUCGAGUGAUGUUCGAUCAAGUGUUCAUUUUGAGAAGGAUGUAGUAGGA [KL-SSFMN-B7]")
238
>>> val("UGGACGAAUAUCGAUAAGAUAUUCUGGGAUACCAGUGACGAAAGUCACCCUUGGCAGCUCAACUGCCAGUGAUGUUGGUAGUCCA [Astros-Elo-mod#3]")
165

###

Test system: MS2 coat protein
Assay: apparent KD of MS2 coat protein; higher = weaker reporter binding
Conditions: Eterna round: R107; input ligand: tryptophan 2.4 mM
Here the recorded apparent KD of MS2 coat protein is given for each entry.
Readout Name: apparent KD of MS2 coat protein (nM)

>>> val("UGUAUGUGAUCUGAUACCAGCGUUGAUAACCUGAGGAUCACCCUGGUAAAGGCGAAAGCCCGCCCUUGGCAGCAGAUCGCAUACU")
787
>>> val("UCAUAUUAGUGAGAUGUAAGGUAUCAUGAUACCAGUAGAUAAUUAUACCCUUGGCAGCAUAACAUGAGGAUCACCCAUGUACAUG [Ab]")
19.8
>>> val("UCGUGUGUUUCGGAUACCAGUGAAAUCGAUACAUGAGGAUCACCCAUGUGAGAGGAUGUACACCCUUGGCAGCUGUCUGUAUCGG [asczmullin]")
43
>>> val("AUGUAAGUGGUGUCACUGUGGUCUAGUGAUACCAGUAUCGAAAGAUACCCUUGGCAGCGCUAGAACAUGAGGAUCACCCAUGUUU [#24 Exclusion-TheophyllineA]")
58.3
>>> val("GGAGGCCUUAGGGAUACCAGCUAAGUUGAGUACAUGAGGAUCACCCAUGUGUUCCCAGAGAGCCCUUGGCAGCCCUCAUCCGUUC [theeternabot_sameState_MS2_Theo_B_7]")
12.4
>>> val("UGGCAAGAGGGAAGGAGCGUCAGCUGAGUCACAUGAGGAUCACCCAUGUCGCACAUAGUGUGACAGGUAGGUCGCCCUCUACCCU [Rearian]")
148

###

Tested on: MS2 coat protein
Test: apparent KD of MS2 coat protein, switch OFF state (with FMN for OFF switches, without FMN for ON switches); designed switch direction (-1 OFF switch, 1 ON switch): -1; higher = weaker reporter binding
Conditions: FMN input: 0 or 200 uM; Eterna round: R93 (includes R88 designs)
Record criterion met whenever apparent KD of MS2 coat protein is at 40 nM or higher; record criterion not met when lower.

>>> group_label("AAAAAACAUGAGGAUCACCCAUGUGAGGAUAUGUAAAAUAAAAUAAAAAUAAAGAAAAGCAGAAGGUAUAUGAA [Amethyst 65]")
"criterion not met"
>>> group_label("AAUUAGGUAGGAUAUACAUGAGGAUCACCCAUGUGGAAAAAAAACUACGAAAAAGAAUGUAGAAGGACCUAAAA [Ex 3 Frozen]")
"criterion not met"
>>> group_label("AAGCACAGAGGAUAUACAUGGGUAAAAAAAAAAAAAAAAAAACAUGAGGAUCACCCAUGUAGAAGGCUGUGCAA")
"criterion not met"
>>> group_label("AGAAUACAUGAGGAUCACCCAUGUGAGGAUAUCAGAAGAAAAAGAAAAGAAAAGAAACUGAGAAGGCACAAAAG [EX 1 May 15]")
"criterion met"
>>> group_label("AAAAAGUCAGGAUAUGCAGAAAAAAAAACGAAAAAAAAACUGCAGAAGGGACAUGAGGAUCACCCAUGUUAAAA [Ex 4 May 14]")
"criterion not met"
>>> group_label("AAAAAGGGAGGAUAUACAUGAGGAUCACCCAUGUAAAAAAAAACAAAAAAAAAAAAAAGUAGAAGGCCCAAAAA [here you go]")
"criterion not met"
